The reported numbers originate from patent US11945798B2.

targetEntity: EGFR del19/C797S (Homo sapiens, UniProt P00533, C797S/DEL746-750)
Sequence (P00533 with tags, fused parts or gaps DEL746-750/C797S): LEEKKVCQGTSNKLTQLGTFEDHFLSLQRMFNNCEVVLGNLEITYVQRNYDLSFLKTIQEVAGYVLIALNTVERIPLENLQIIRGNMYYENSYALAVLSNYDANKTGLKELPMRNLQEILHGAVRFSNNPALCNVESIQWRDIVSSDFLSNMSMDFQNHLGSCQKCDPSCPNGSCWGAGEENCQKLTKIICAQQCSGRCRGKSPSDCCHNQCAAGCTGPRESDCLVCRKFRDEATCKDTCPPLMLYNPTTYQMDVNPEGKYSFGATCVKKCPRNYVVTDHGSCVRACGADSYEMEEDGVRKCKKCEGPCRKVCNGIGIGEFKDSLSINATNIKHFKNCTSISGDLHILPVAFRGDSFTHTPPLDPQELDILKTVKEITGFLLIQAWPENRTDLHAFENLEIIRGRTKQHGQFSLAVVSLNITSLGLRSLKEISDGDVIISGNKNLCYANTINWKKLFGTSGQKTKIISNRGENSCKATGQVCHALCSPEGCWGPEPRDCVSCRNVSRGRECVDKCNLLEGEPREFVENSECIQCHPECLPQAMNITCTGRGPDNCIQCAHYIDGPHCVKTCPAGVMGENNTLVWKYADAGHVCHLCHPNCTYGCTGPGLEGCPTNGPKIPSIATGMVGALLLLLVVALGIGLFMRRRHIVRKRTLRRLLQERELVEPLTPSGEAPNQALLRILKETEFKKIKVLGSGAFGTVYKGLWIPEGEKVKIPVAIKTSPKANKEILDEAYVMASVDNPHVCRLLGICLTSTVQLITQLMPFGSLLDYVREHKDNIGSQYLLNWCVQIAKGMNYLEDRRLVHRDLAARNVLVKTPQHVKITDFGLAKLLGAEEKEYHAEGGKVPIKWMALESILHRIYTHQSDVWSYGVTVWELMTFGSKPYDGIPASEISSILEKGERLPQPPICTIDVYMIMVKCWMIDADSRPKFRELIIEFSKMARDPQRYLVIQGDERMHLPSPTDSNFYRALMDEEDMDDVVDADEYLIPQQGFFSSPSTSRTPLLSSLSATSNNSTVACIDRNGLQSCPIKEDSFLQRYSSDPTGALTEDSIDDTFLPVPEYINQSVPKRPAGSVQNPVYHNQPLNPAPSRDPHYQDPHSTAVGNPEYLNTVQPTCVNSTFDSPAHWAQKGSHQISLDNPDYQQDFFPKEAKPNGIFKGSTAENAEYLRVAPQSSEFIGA
method: Biochemical EGFR kinase assay (Lance Ultra TR-FRET), del19/C797S
conditionNotes: Km ATP; read-out: IC50 del19/C797S (nM) Km ATP
readoutName: IC50 (nM)

• C[C@@H](O)CCNc1cc(Nc2ccnc(-c3cnn(S(=O)(=O)C4CC4)c3)n2)ncc1C(=O)C1CC1 = 58.9
• CC(C)Nc1cc(Nc2ccnc(-c3cnn(S(=O)(=O)C4CC4)c3)n2)ncc1C(=O)NCCF = 94.6
• O=C(c1cnc(Nc2ccnc(-c3cnn(S(=O)(=O)C4CC4)c3)n2)cc1NCCCC(F)F)C1CC1 = 132
• O=C(c1cnc(Nc2ccnc(-c3cnn(S(=O)(=O)C4CC4)c3)n2)cc1NCCF)C1CC1 = 232
• C[C@]1(O)CC[C@@H](Nc2cc(Nc3ccnc(-c4cnn(S(=O)(=O)C5CC5)c4)n3)ncc2C(=O)NCCF)CC1 = 0.9
• CC(=O)NC[C@H]1CC[C@H](CNc2cc(Nc3ccnc(-c4cnn(S(=O)(=O)C5CC5)c4)n3)ncc2C(=O)C2CC2)CC1 = 1
• CN(C)Cc1ccc(CNc2cc(Nc3ccnc(-c4cnn(S(=O)(=O)C5CC5)c4)n3)ncc2C(=O)C2CC2)cn1 = 159
• O=C(c1cnc(Nc2ccnc(-c3cnn(S(=O)(=O)C4CC4)c3)n2)cc1NC[C@H]1CC[C@H](Cn2ccnc2)CC1)C1CC1 = 10.5
• O=C(c1cnc(Nc2ccnc(-c3cnn(S(=O)(=O)C4CC4)c3)n2)cc1N[C@H]1CC[C@](O)(CO)CC1)C1CC1 = 1.9
• C[C@]1(O)CC[C@@H](Nc2cc(Nc3ccnc(-c4cnn(S(=O)(=O)C5CC5)c4)n3)ncc2C(=O)CC2CCOCC2)CC1 = 3.1
• CN[C@H]1CC[C@H](CNc2cc(Nc3ccnc(-c4cnn(S(=O)(=O)C5CC5)c4)n3)ncc2C(=O)C2CC2)CC1 = 1.6
• CN(C)C[C@H]1CC[C@H](COc2cc(Nc3ccnc(-c4cnn(S(=O)(=O)C5CC5)c4)n3)ncc2C(=O)C2CC2)CC1 = 11.1
• CC(NCC1CCC(CNc2cc(Nc3ccnc(-c4cnn(S(=O)(=O)C5CC5)c4)n3)ncc2C(=O)C2CC2)CC1)C(F)F (centres unmarked) = 16.1
• CC(C)Nc1cc(Nc2ccnc(-c3cnn(S(=O)(=O)C4CC4)c3)n2)ncc1C(=O)C1CC1 = 4.5

* * *

targetEntity: EGFR L858R/T790M/C797S (Homo sapiens, UniProt P00533, C797S/L858R/T790M)
Sequence (P00533 25-1210 T790M/C797S/L858R): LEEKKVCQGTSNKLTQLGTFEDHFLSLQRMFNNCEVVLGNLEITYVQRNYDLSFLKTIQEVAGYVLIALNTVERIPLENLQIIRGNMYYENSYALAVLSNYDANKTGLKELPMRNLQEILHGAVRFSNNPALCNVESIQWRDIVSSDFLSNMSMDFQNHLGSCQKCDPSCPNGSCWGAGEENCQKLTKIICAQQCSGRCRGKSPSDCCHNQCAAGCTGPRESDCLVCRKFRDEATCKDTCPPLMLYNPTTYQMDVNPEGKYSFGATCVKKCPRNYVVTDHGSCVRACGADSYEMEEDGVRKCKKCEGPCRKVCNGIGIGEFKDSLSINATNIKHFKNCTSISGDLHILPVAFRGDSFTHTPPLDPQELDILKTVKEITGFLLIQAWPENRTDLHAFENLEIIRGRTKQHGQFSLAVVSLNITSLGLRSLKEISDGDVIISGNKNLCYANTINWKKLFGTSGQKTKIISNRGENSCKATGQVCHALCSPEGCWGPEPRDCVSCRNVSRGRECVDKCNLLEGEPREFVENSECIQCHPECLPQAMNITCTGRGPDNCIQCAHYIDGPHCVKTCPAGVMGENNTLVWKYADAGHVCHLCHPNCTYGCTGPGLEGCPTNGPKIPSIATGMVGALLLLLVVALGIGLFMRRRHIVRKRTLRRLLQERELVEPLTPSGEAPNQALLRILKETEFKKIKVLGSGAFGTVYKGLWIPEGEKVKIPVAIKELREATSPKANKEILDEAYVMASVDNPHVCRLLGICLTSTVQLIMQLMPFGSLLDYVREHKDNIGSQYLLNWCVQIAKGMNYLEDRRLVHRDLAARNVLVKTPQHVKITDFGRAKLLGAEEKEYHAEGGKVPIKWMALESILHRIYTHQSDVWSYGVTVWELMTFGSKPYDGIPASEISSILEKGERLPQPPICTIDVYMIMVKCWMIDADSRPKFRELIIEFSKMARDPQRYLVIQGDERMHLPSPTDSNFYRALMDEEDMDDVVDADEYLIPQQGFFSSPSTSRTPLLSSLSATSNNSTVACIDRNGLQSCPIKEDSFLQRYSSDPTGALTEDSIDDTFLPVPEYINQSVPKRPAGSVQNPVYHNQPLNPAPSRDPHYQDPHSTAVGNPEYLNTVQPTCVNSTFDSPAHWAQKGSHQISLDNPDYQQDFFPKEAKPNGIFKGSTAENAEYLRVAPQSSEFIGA
method: Biochemical EGFR kinase assay (Lance Ultra TR-FRET), L858R/T790M/C797S
conditionNotes: Km ATP; read-out: IC50 L858R/T790M/C797S (nM) Km ATP
Attribute: IC50
readoutName: IC50

* O=C(c1cnc(Nc2ccnc(-c3cnn(S(=O)(=O)C4CC4)c3)n2)cc1NC[C@H]1CC[C@H](CNC2CCCC2)CC1)C1CC1 [Example 70] | 0.4 nM
* O=C(c1cnc(Nc2ccnc(-c3cnn(S(=O)(=O)C4CC4)c3)n2)cc1NCCC1CCOC1)C1CC1 (centres unmarked) [Example 6] | 4.5 nM
* C[C@@H](CCO)Nc1cc(Nc2ccnc(-c3cnn(S(=O)(=O)C4CC4)c3)n2)ncc1C(=O)C1CC1 [Example 8] | 1.4 nM
* CN(C)C[C@H]1CC[C@H](CNc2cc(Nc3ccnc(-c4cnn(S(=O)(=O)C5CC5)c4)n3)ncc2C(=O)C2CC2)CC1 [Example 58] | 0.1 nM
* CN(C)Cc1ccc(CNc2cc(Nc3ccnc(-c4cnn(S(=O)(=O)C5CC5)c4)n3)ncc2C(=O)C2CC2)s1 [Example 20] | 3.9 nM
* CN(C)CCN1CCC(Nc2cc(Nc3ccnc(-c4cnn(S(=O)(=O)C5CC5)c4)n3)ncc2C(=O)C2CC2)CC1 [Example 37] | 0.4 nM
* CC(=O)c1cnc(Nc2ccnc(-c3cnn(S(=O)(=O)C4CC4)c3)n2)cc1NC1CCC(CO)C1 (centres unmarked) [Example 47] | 0.6 nM
* CC(=O)NC[C@H]1CC[C@H](CNc2cc(Nc3ccnc(-c4cnn(S(=O)(=O)C5CC5)c4)n3)ncc2C(=O)C2CC2)CC1 [Example 68] | 0.5 nM
* CC(C)Nc1cc(Nc2ccnc(-c3cnn(S(=O)(=O)C4CC4)c3)n2)ncc1F [Example 41] | 5.6 nM
* C[C@@H](O)CCNc1cc(Nc2ccnc(-c3cnn(S(=O)(=O)C4CC4)c3)n2)ncc1C(=O)C1CC1 [Example 11] | 2.3 nM
* O=C(c1cnc(Nc2ccnc(-c3cnn(S(=O)(=O)C4CC4)c3)n2)cc1NCCF)C1CC1 [Example 3] | 5.4 nM
* CC(C)NC[C@H]1CC[C@H](CNc2cc(Nc3ccnc(-c4cnn(S(=O)(=O)C5CC5)c4)n3)ncc2C(=O)C2CC2)CC1 [Example 69] | 0.1 nM
* CC(O)C(C)(C)Nc1cc(Nc2ccnc(-c3cnn(S(=O)(=O)C4CC4)c3)n2)ncc1C(=O)C1CC1 (centres unmarked) [Example 12] | 0.6 nM
* O=C(c1cnc(Nc2ccnc(-c3cnn(S(=O)(=O)C4CC4)c3)n2)cc1NCC1CCCCO1)C1CC1 (centres unmarked) [Example 10] | 13.7 nM

* * *

targetEntity: EGFR L858R/C797S (Homo sapiens, UniProt P00533, C797S/L858R)
Sequence (P00533 25-1210 C797S/L858R): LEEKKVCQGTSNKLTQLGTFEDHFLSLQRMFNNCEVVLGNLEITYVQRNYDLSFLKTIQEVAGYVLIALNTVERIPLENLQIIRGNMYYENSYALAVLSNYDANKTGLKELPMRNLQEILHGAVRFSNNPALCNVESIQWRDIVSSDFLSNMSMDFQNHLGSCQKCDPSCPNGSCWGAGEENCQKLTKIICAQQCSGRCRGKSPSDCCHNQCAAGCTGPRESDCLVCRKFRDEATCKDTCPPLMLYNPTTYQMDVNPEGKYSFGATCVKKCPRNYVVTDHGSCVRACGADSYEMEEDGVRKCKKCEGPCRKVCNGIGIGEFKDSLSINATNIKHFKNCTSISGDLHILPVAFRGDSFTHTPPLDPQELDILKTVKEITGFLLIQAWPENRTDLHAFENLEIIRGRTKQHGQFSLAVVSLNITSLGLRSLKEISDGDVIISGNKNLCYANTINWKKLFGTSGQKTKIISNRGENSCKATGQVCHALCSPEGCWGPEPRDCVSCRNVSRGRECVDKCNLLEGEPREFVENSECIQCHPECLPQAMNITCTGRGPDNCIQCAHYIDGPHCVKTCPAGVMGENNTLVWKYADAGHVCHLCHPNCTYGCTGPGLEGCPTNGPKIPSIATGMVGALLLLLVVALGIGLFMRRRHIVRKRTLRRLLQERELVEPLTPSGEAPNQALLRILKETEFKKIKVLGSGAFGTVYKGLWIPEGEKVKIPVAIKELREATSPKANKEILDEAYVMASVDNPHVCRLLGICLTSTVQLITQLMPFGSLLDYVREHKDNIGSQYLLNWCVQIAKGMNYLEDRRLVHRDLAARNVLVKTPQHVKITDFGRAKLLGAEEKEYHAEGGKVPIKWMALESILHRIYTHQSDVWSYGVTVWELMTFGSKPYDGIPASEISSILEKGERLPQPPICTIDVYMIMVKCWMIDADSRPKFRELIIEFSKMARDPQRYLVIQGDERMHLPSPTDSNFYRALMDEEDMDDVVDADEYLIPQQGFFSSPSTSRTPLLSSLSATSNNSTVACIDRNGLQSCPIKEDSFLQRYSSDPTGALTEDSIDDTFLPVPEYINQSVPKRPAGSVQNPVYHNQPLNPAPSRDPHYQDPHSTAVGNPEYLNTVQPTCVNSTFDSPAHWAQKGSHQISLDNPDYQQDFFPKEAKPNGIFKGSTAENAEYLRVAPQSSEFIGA
method: Biochemical EGFR kinase assay (Lance Ultra TR-FRET), L858R/C797S
conditionNotes: IC50 L858R/C797S (nM) 100 μM ATP, 100 μM ATP
readoutName: IC50 (nM)

* CN(C)CCN1CCC(Nc2cc(Nc3ccnc(-c4cnn(S(=O)(=O)C5CC5)c4)n3)ncc2C(=O)C2CC2)CC1 | 168
* O=C(c1cnc(Nc2ccnc(-c3cnn(S(=O)(=O)C4CC4)c3)n2)cc1NC1CCC(NCCN2CCCCC2)CC1)C1CC1 (stereo not shown) | 12.2
* CN[C@H]1CC[C@@H](Nc2cc(Nc3ccnc(-c4cnn(S(=O)(=O)C5CC5)c4)n3)ncc2C(=O)C2CC2)CC1 | 54.7
* CC1(CO)CCN(c2cc(Nc3ccnc(-c4cnn(S(=O)(=O)C5CC5)c4)n3)ncc2F)CC1 | 903
* O=C(c1cnc(Nc2ccnc(-c3cnn(S(=O)(=O)C4CC4)c3)n2)cc1NC1CCCOC1)C1CC1 (stereo not shown) | 398
* O=C(c1cnc(Nc2ccnc(-c3cnn(S(=O)(=O)C4CC4)c3)n2)cc1N[C@H]1CC[C@](O)(CO)CC1)C1CC1 | 52.9
* CNC[C@H]1CC[C@H](CNc2cc(Nc3ccnc(-c4cnn(S(=O)(=O)C5CC5)c4)n3)ncc2C(=O)C2CC2)CC1 | 7.9

* * *

Listed compounds paired with reported IC50
targetEntity: EGFR del19/C797S (Homo sapiens, UniProt P00533, C797S/DEL746-750)
method: Biochemical EGFR kinase assay (Lance Ultra TR-FRET), del19/C797S
conditionNotes: Km ATP; read-out: IC50 del19/C797S (nM) Km ATP
readoutName: IC50 (nM)

* CN(C)C[C@H]1CC[C@H](CNc2cc(Nc3ccnc(-c4cnn(S(=O)(=O)C5CC5)c4)n3)ncc2C(=O)C2CC2)CC1 | 0.4
* CC(=O)c1cnc(Nc2ccnc(-c3cnn(S(=O)(=O)C4CC4)c3)n2)cc1NC1CCC(CO)C1 (stereo not shown) | 10.5
* O=C(c1cnc(Nc2ccnc(-c3cnn(S(=O)(=O)C4CC4)c3)n2)cc1NC[C@H]1CC[C@H](CNC2CCCC2)CC1)C1CC1 | 2.7
* O=C(c1cnc(Nc2ccnc(-c3cnn(S(=O)(=O)C4CC4)c3)n2)cc1N[C@H]1CC[C@@H](NCCF)CC1)C(F)F | 45.4
* CN(C)C[C@H]1CC[C@H](CNc2cc(Nc3ccnc(-c4cnn(S(=O)(=O)C5CC5)c4)n3)ncc2C(=O)N2CC(F)(F)C2)CC1 | 24.6
* CC(C)Oc1cc(Nc2ccnc(-c3cnn(S(=O)(=O)C4CC4)c3)n2)ncc1NC(=O)C1CC1 | 213
* CN(C)CCN1CCC(Nc2cc(Nc3ccnc(-c4cnn(S(=O)(=O)C5CC5)c4)n3)ncc2C(=O)C2CC2)CC1 | 36.9

* * *

targetEntity: EGFR L858R/T790M/C797S (Homo sapiens, UniProt P00533, C797S/L858R/T790M)
method: Biochemical EGFR kinase assay (Lance Ultra TR-FRET), L858R/T790M/C797S
conditionNotes: Km ATP; read-out: IC50 L858R/T790M/C797S (nM) Km ATP
Measured IC50 by item
readoutName: IC50

* CC(C)Oc1cc(Nc2ccnc(-c3cnn(S(=O)(=O)C4CC4)c3)n2)ncc1NC(=O)C1CC1 | 10.5 nM
* C[C@]1(O)CC[C@@H](Nc2cc(Nc3ccnc(-c4cnn(S(=O)(=O)C5CC5)c4)n3)ncc2C(=O)C(F)F)CC1 | 0.5 nM
* CC(C)(O)[C@H]1CC[C@@H](Nc2cc(Nc3ccnc(-c4cnn(S(=O)(=O)C5CC5)c4)n3)ncc2C(=O)C(F)F)CC1 | 1.1 nM
* CNC[C@H]1CC[C@H](CNc2cc(Nc3ccnc(-c4cnn(S(=O)(=O)C5CC5)c4)n3)ncc2C(=O)C2CC2)CC1 | 0.1 nM
* C[C@H](CCO)Nc1cc(Nc2ccnc(-c3cnn(S(=O)(=O)C4CC4)c3)n2)ncc1C(=O)C1CC1 | 2.7 nM
* O=C(c1cnc(Nc2ccnc(-c3cnn(S(=O)(=O)C4CC4)c3)n2)cc1NC1CCC(CO)C1)C1CC1 (centres unmarked) | 0.2 nM
* CN(C)CC1CCC(CNc2cc(Nc3ccnc(-c4cnn(C5CCOC5)c4)n3)ncc2C(=O)C2CC2)CC1 (centres unmarked) | 9.4 nM
* O=C(c1cnc(Nc2ccnc(-c3cnn(S(=O)(=O)C4CC4)c3)n2)cc1NCC1CCN(CC2CC2)CC1)C1CC1 | 17.2 nM
* NC[C@H]1CC[C@H](CNc2cc(Nc3ccnc(-c4cnn(S(=O)(=O)C5CC5)c4)n3)ncc2C(=O)C2CC2)CC1 | 0.2 nM
* CN(C)C1CCN(CCNc2cc(Nc3ccnc(-c4cnn(S(=O)(=O)C5CC5)c4)n3)ncc2C(=O)C2CC2)CC1 | 1.1 nM
* O=C(c1cnc(Nc2ccnc(-c3cnn(S(=O)(=O)C4CC4)c3)n2)cc1NC[C@H]1CC[C@H](Cn2ccnc2)CC1)C1CC1 | 0.5 nM
* CN(C)CCNc1cc(Nc2ccnc(-c3cnn(S(=O)(=O)C4CC4)c3)n2)ncc1C(=O)C1CC1 | 31.9 nM
* O=C(c1cnc(Nc2ccnc(-c3cnn(S(=O)(=O)C4CC4)c3)n2)cc1N[C@H]1CC[C@@H](NCCF)CC1)C(F)F | 1.1 nM
* CN(C)Cc1ccc(CNc2cc(Nc3ccnc(-c4cnn(S(=O)(=O)C5CC5)c4)n3)ncc2C(=O)C2CC2)cn1 | 3.8 nM
